molecular target: APOL1 G1 (Homo sapiens, UniProt O14791, I384M/S342G); assay: MultiTox-Fluor Multiplex Cytotoxicity Assay, tet-inducible APOL1 G1 T-REx-HEK293 cells; type: cell-based; set-up: expressed in transfected cells; host or cells: T-REx HEK293, clone G1 DC3.25 (pAAVS1-Puro-APOL1 G1); settings: Multi-Tox Assay; APOL1 variant not given
VALUE_KIND: Multi-Tox Assay Max Activity (%)

>>> measured_value("Cc1nc([C@@H]2C[C@]3(C[C@H](C)N2)OCCc2cc(Cl)sc23)c[nH]1 (racemic)")
93.0
>>> measured_value("C[C@H]1C[C@@]2(C[C@@H](c3cnc4c(cnn4C)c3)N1)OCCc1cc(Cl)sc12 (racemic)")
100.0
>>> measured_value("Cc1coc([C@@H]2C[C@]3(C[C@H](C)N2)OCCc2cc(Cl)sc23)n1 (racemic)")
95.2
>>> measured_value("C[C@H]1C[C@@]2(C[C@@H](c3cnc(C4CC4)nc3)N1)OCCc1cc(Cl)sc12 (racemic)")
99.7
>>> measured_value("C[C@H]1C[C@@]2(C[C@@H](c3cn(Cc4ccc(O)cc4)nn3)N1)OCC(F)(F)c1cc(Cl)sc12")
94.0
>>> measured_value("COCC(O)Cn1cc([C@@H]2C[C@]3(C[C@H](C)N2)OCC(F)(F)c2cc(Cl)sc23)nn1 (stereo partly shown)")
98.0
>>> measured_value("C[C@H]1C[C@@]2(C[C@@H](c3cn(CC4(F)CCOCC4)nn3)N1)OC[C@@H](O)c1cc(Cl)sc12")
83.0

* * *

Biological target: APOL1 G1 (Homo sapiens, UniProt O14791, I384M/S342G)
Sequence (O14791 28-398 S342G/I384M): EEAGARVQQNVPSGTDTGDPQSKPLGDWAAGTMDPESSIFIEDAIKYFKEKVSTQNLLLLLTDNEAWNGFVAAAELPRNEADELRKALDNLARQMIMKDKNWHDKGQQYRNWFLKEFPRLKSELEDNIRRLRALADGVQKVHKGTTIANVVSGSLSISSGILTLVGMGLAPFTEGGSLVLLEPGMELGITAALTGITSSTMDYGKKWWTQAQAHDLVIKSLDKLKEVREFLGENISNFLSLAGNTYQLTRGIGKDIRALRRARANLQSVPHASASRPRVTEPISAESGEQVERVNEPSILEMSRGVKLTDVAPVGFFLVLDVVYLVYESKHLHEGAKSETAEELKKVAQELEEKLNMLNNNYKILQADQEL
Assay: MultiTox-Fluor Multiplex Cytotoxicity Assay, tet-inducible APOL1 G1 T-REx-HEK293 cells
Type: cell-based
Parameters: expressed in transfected cells; host or cells: T-REx HEK293, clone G1 DC3.25 (pAAVS1-Puro-APOL1 G1)
Settings: HEK293, Multi-Tox Assay; APOL1 variant (G0/G1/G2) of the HEK293 cells not given; read-out: Multi-Tox Assay IC90
VALUE_KIND: IC90

>>> measured_value("C[C@H]1C[C@@]2(C[C@@H](c3ccc(S(N)(=O)=O)cc3F)N1)OCCc1cc(Cl)sc12 (racemic) [Compound 78]")
"< 50 nM"
>>> measured_value("C[C@H]1C[C@@]2(C[C@@H](c3cn(Cc4ccc(C#N)cc4)nn3)N1)OC[C@@H](O)c1cc(Cl)sc12 [Compound 253]")
"50 to 500 nM"
>>> measured_value("Cc1noc2cc([C@@H]3C[C@]4(C[C@H](C)N3)OCCc3cc(Cl)sc34)ccc12 (racemic) [Compound 25]")
"< 50 nM"
>>> measured_value("CC(CO)CCn1cc([C@@H]2C[C@]3(C[C@H](C)N2)OC[C@@H](O)c2cc(Cl)sc23)nn1 (stereo partly shown) [Compound 264]")
"50 to 500 nM"

* * *

molecular target: APOL1 G1 (Homo sapiens, UniProt O14791, I384M/S342G); assay: MultiTox-Fluor Multiplex Cytotoxicity Assay, tet-inducible APOL1 G1 T-REx-HEK293 cells; type: cell-based; set-up: expressed in transfected cells; host or cells: T-REx HEK293, clone G1 DC3.25 (pAAVS1-Puro-APOL1 G1); conditions: Multi-Tox Assay; APOL1 variant not given
The compounds listed here are annotated with their Multi-Tox Assay Max Activity (%).
VALUE_KIND: Multi-Tox Assay Max Activity (%)

>>> measured_value("C[C@H]1C[C@@]2(C[C@@H](c3ncc(C(F)(F)F)[nH]3)N1)OCCc1cc(Cl)sc12 (racemic)")
92.0
>>> measured_value("COc1ccc([C@@H]2C[C@]3(C[C@H](C)N2)OCCc2cc(Cl)sc23)c(F)c1 (racemic)")
99.5
>>> measured_value("C[C@H]1C[C@@]2(C[C@@H](c3cn(CCO)nn3)N1)OC[C@@H](O)c1cc(Cl)sc12")
100.0
>>> measured_value("C[C@H]1C[C@@]2(C[C@@H](c3cccc(-c4cn[nH]c4)c3)N1)OCCc1cc(Cl)sc12 (racemic)")
97.0
>>> measured_value("C[C@H]1C[C@@]2(C[C@@H](c3ccnc(N(C)C)n3)N1)OCCc1cc(Cl)sc12 (racemic)")
99.3
>>> measured_value("C[C@H]1C[C@@]2(C[C@@H](c3cn(Cc4cnccn4)nn3)N1)OC[C@@H](O)c1cc(Cl)sc12")
100.0
>>> measured_value("Cc1nccc([C@@H]2C[C@]3(C[C@H](C)N2)OCCc2cc(Cl)sc23)n1 (racemic)")
99.4
>>> measured_value("COCCOCCn1cc([C@@H]2C[C@]3(C[C@H](C)N2)OC[C@@H](O)c2cc(Cl)sc23)nn1")
98.0
>>> measured_value("C[C@H]1C[C@@]2(C[C@@H](c3cn(Cc4ccccc4S(C)(=O)=O)nn3)N1)OCC(F)(F)c1cc(Cl)sc12")
96.0
>>> measured_value("COc1ccc(Cn2cc([C@@H]3C[C@]4(C[C@H](C)N3)OCC(F)(F)c3cc(Cl)sc34)nn2)cc1")
96.0
>>> measured_value("CC1CC2(CC(c3cnn(CCS(C)(=O)=O)c3)N1)OCCc1sc(C(F)(F)F)cc12 (centres unmarked)")
100.0
>>> measured_value("COc1cc(F)cc(Cn2cc([C@@H]3C[C@]4(C[C@H](C)N3)OCC(F)(F)c3cc(Cl)sc34)nn2)c1")
97.0
>>> measured_value("C[C@H]1C[C@@]2(C[C@@H](c3cn(CC(O)c4ccccc4)nn3)N1)OCC(F)(F)c1cc(Cl)sc12 (some centres unmarked)")
97.0
>>> measured_value("C[C@H]1C[C@@]2(C[C@@H](c3cnc(N4CCN(C)CC4)nc3)N1)OCCc1cc(Cl)sc12 (racemic)")
100.0

* * *

biological target: APOL1 G1 (Homo sapiens, UniProt O14791, I384M/S342G); assay: MultiTox-Fluor Multiplex Cytotoxicity Assay, tet-inducible APOL1 G1 T-REx-HEK293 cells; format: cell-based; parameters: expressed in transfected cells; host or cells: T-REx HEK293, clone G1 DC3.25 (pAAVS1-Puro-APOL1 G1); conditions: HEK293, Multi-Tox Assay; APOL1 variant (G0/G1/G2) of the HEK293 cells not given; read-out: Multi-Tox Assay IC90
Consider the following compounds and their measured IC90 readings.
VALUE_KIND: IC90

>>> measured_value("C[C@H]1C[C@@]2(C[C@@H](c3cn(CCOc4ccccc4F)nn3)N1)OC[C@@H](O)c1cc(Cl)sc12")
"< 50 nM"
>>> measured_value("COc1nccc([C@@H]2C[C@]3(C[C@H](C)N2)OCCc2cc(Cl)sc23)n1 (racemic)")
"50 to 500 nM"
>>> measured_value("C[C@@H]1CC2(C[C@H](C)N1)OCCc1sc(C(F)(F)F)cc12 (single isomer, unassigned)")
"50 to 500 nM"
>>> measured_value("COc1ccc(Cn2cc([C@@H]3C[C@]4(C[C@H](C)N3)OC[C@@H](O)c3cc(Cl)sc34)nn2)cc1")
"50 to 500 nM"
>>> measured_value("C[C@H]1C[C@@]2(C[C@@H](c3cccc(C#N)n3)N1)OCCc1cc(Cl)sc12 (racemic)")
"< 50 nM"
>>> measured_value("CCc1cc2c(s1)C(C)COC21C[C@@H](c2cn(C)nn2)N[C@@H](C)C1 (single isomer, unassigned)")
"< 50 nM"
>>> measured_value("C[C@H]1C[C@@]2(C[C@@H](c3cnc(NC(C)(C)CO)nc3)N1)OCCc1cc(Cl)sc12 (racemic)")
"< 50 nM"

* * *

target: APOL1 G1 (Homo sapiens, UniProt O14791, I384M/S342G); assay: MultiTox-Fluor Multiplex Cytotoxicity Assay, tet-inducible APOL1 G1 T-REx-HEK293 cells; assay type: cell-based; parameters: expressed in transfected cells; host or cells: T-REx HEK293, clone G1 DC3.25 (pAAVS1-Puro-APOL1 G1); conditions: HEK293, Multi-Tox Assay; APOL1 variant (G0/G1/G2) of the HEK293 cells not given; read-out: Multi-Tox Assay IC90
Below is a list of entries, each paired with its recorded IC90 value.
VALUE_KIND: IC90

>>> measured_value("C[C@H]1C[C@@]2(C[C@@H](c3cn(Cc4ncc(F)cc4F)nn3)N1)OC[C@@H](O)c1cc(Cl)sc12")
"> 500 nM"
>>> measured_value("Cc1ccnc([C@@H]2C[C@]3(C[C@H](C)N2)OCCc2cc(Cl)sc23)c1 (racemic)")
"50 to 500 nM"
>>> measured_value("C#C[C@@H]1C[C@]2(C[C@H](C)N1)OCC(F)(F)c1cc(Cl)sc12")
"> 500 nM"
>>> measured_value("Cc1c(Cn2cc([C@@H]3C[C@]4(C[C@H](C)N3)OC[C@@H](O)c3cc(Cl)sc34)nn2)cnn1C")
"50 to 500 nM"
>>> measured_value("C[C@H]1C[C@@]2(C[C@@H](c3cn(C)nn3)N1)OC[C@@H](O)c1cc(Cl)sc12")
"< 50 nM"
>>> measured_value("CC1CC2(CC(c3cncnc3)N1)OCCc1cc(Cl)sc12 (stereo not shown)")
"< 50 nM"
>>> measured_value("Cc1nccn1CCCn1cc([C@@H]2C[C@]3(C[C@H](C)N2)OCC(F)(F)c2cc(Cl)sc23)nn1")
"> 500 nM"
>>> measured_value("CCOc1cc([C@@H]2C[C@]3(C[C@H](C)N2)OCCc2cc(Cl)sc23)ccc1O (racemic)")
"< 50 nM"
>>> measured_value("Cc1cc(C)nc(CCn2cc([C@@H]3C[C@]4(C[C@H](C)N3)OCC(F)(F)c3cc(Cl)sc34)nn2)c1")
"50 to 500 nM"
>>> measured_value("CC(C)C1CC2(CC(c3cn(C)nn3)N1)OCCc1cc(C(F)(F)F)sc12 (stereo not shown)")
"50 to 500 nM"
>>> measured_value("Cc1cc(Cn2cc([C@@H]3C[C@]4(C[C@H](C)N3)OC[C@@H](O)c3cc(Cl)sc34)nn2)ccn1")
"50 to 500 nM"
>>> measured_value("CC1CC2(CC(CO)N1)OCCc1cc(Cl)sc12 (mixture of isomers)")
"> 500 nM"
>>> measured_value("COCC1CC2(CC(c3cn(C)nn3)N1)OCCc1cc(C(F)(F)F)sc12 (stereo not shown)")
"50 to 500 nM"
>>> measured_value("Cc1ccnn1CCn1cc([C@@H]2C[C@]3(C[C@H](C)N2)OCC(F)(F)c2cc(Cl)sc23)nn1")
"50 to 500 nM"
>>> measured_value("Cc1cc([C@@H]2C[C@]3(C[C@H](C)N2)OCCc2cc(Cl)sc23)ccc1O (racemic)")
"50 to 500 nM"
>>> measured_value("C[C@H]1C[C@@]2(C[C@@H](c3cn(CC4(O)CC4)nn3)N1)OC[C@@H](O)c1cc(Cl)sc12")
"50 to 500 nM"

Sourced from patent EP4810040A2
